Biological target: Vascular endothelial growth factor receptor 2 (Homo sapiens)
Assay: Inhibition of KDR at 10 uM by HTRF assay relative to control
Each entry below carries its recorded inhibition.
Write it as a number; the unit % goes unstated.

See these solved cases before continuing.
>>> readout_number("O=C(NC1Cc2ccccc2C1)c1cccc(Nc2ccnc(N3CCN(c4ccccc4)CC3)n2)c1")
6
>>> readout_number("Nc1nc(N2CCOCC2)cc(N2CCC(C(=O)NCCc3ccc(O)cc3)CC2)n1")
7
>>> readout_number("COc1ccc(NC(=O)Cc2ccc(Nc3cc(N(C)c4cccc(C)c4)ncn3)cc2)cn1")
8
>>> readout_number("Cc1cccc(Oc2ccnc(N3CCN(CC(=O)Nc4cccc5c4CCCC5)CC3)n2)c1")
0
>>> readout_number("Cc1cccc(N(C)c2cc(Nc3cccc(C(=O)NCc4ccc(N(C)C)cc4)c3)ncn2)c1")
0
>>> readout_number("Cc1cccc(N(C)c2cc(Nc3cccc(C(=O)NCCCn4ccnc4)c3)ncn2)c1")
26
>>> readout_number("O=C(CN1CCN(c2ncnc3c2CN(Cc2ccccc2)CC3)CC1)Nc1cc(F)ccc1F")
1
>>> readout_number("Cc1cccc(N(C)c2cc(Nc3cccc(C(=O)N(CC(C)C)CC(C)C)c3)ncn2)c1")
5
>>> readout_number("CC(=O)N1CCN(C(=O)c2cccc(Nc3cc(N(C)c4cccc(C)c4)ncn3)c2)CC1")
41
>>> readout_number("COC(=O)C(CO)NC(=O)[C@@H]1CCCN1c1nccc(Oc2cccc(C)c2)n1 (stereo not given in full)")
5

**Query** Request the reported inhibition associated with Cc1cccc(N(C)c2cc(Nc3cccc(C(=O)NCc4ccncc4)c3)ncn2)c1
**Result** 19

**Query** Request the reported inhibition associated with O=C(NCc1ccncc1)c1cccc(Nc2cc(Nc3cccc(Br)c3)ncn2)c1
**Result** 22

**Query** Request the reported inhibition associated with Cc1cccc(N(C)c2cc(Nc3cccc(C(=O)N4CCCC5CCCCC54)c3)ncn2)c1 (stereo not given)
**Result** 0

**Query** Request the reported inhibition associated with CN(CCCn1ccnc1)C(=O)[C@@H]1CCCN1c1nccc(Nc2ccccc2)n1
**Result** 3

====

Molecular target: Tyrosine-protein kinase Lyn (Homo sapiens) (UniProt P07948)
Sequence (P07948 2-512 limits assumed): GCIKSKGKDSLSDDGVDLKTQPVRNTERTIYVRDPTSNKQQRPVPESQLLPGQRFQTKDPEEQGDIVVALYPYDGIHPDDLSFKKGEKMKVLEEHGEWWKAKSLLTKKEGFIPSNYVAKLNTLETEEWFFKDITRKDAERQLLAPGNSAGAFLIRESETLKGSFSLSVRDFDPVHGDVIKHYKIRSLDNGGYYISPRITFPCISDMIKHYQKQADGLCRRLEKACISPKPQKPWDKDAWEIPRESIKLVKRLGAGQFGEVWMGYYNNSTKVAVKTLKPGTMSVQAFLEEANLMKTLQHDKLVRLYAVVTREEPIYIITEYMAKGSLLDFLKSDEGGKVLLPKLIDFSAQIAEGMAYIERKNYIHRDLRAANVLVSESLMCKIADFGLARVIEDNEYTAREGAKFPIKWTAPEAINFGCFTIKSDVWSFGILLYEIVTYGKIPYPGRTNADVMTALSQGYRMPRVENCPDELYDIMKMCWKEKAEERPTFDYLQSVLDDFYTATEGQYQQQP
Assay: Inhibition of Lyn at 10 uM by HTRF assay relative to control
// label 0 strictly below 2% in inhibition; label 1 otherwise

The examples below pair each entry with its known result.
>>> assigned_category("Cc1cccc(Nc2ncnc3c2CN(C(=O)c2ccc(N(C)C)c4ccccc24)CC3)c1")
"label 1"
>>> assigned_category("Cc1cccc(Nc2nccc(Nc3cccc(C(=O)N(C)CCc4ccccn4)c3)n2)c1")
"label 1"
>>> assigned_category("CN(CCCn1ccnc1)C(=O)[C@@H]1CCCN1c1nccc(Nc2ccccc2)n1")
"label 0"
>>> assigned_category("COC[C@@H]1CCCN1C(=O)C1CCCN1c1cc(Nc2cccc(Br)c2)ncn1 (some centres undefined)")
"label 0"
>>> assigned_category("Cc1ccc(CN2CCN(c3nccc(C(C#N)c4ccccn4)n3)CC2)cc1 (centres undefined)")
"label 1"
>>> assigned_category("Nc1nc(Nc2ccc3ncsc3c2)cc(N2CCC[C@H]2C(=O)NCCc2cccc(I)c2)n1")
"label 1"

**Query** Could you tell me if the measured inhibition of CN(C)CC(C)(C)CNC(=O)[C@@H]1CCCN1c1nccc(Nc2ccccc2)n1 reaches 2% or more?
**Result** label 1

**Query** Could you tell me if the measured inhibition of O=C(c1nc(SCc2ccc(Cl)cc2)n2ccccc12)N1CCN(c2ncnc3c2CN(Cc2ccccc2)CC3)CC1 reaches 2% or more?
**Result** label 0

====

Target: Protein kinase C gamma type (Homo sapiens)
Assay: Inhibition of PKCgamma at 10 uM by HTRF assay relative to control
Each entry below carries its recorded inhibition.
Write it as a number; the unit % goes unstated.

>>> readout_number("Cc1cccc(N(C)c2cc(N3CCN(C(=O)Cc4c[nH]c5ccccc45)CC3)ncn2)c1")
2
>>> readout_number("Nc1nc(Nc2ccc(C(=O)NCCc3ccncc3)cc2)cc(N2CCOCC2)n1")
0

**Query** Request the reported inhibition associated with Cc1cccc(N(C)c2cc(Nc3cccc(C(=O)NCCCn4ccnc4)c3)ncn2)c1
**Result** 2

**Query** Request the reported inhibition associated with Cc1cccc(Nc2nccc3c2CN(C(=O)c2cc(C)n(C)c2C)CC3)c1
**Result** 4

**Query** Request the reported inhibition associated with COc1cccc(Nc2cc(N3CCC[C@H]3C(=O)NCCc3ccc(O)cc3)nc(N)n2)c1
**Result** 5

**Query** Request the reported inhibition associated with O=C(NCc1ccncc1)c1cccc(Nc2cc(Nc3cccc(Br)c3)ncn2)c1
**Result** 0

**Query** Request the reported inhibition associated with Cc1cccc(Nc2nccc(Nc3cccc(C(=O)NCc4ccc(N(C)C)cc4)c3)n2)c1
**Result** 0

**Query** Request the reported inhibition associated with COc1cccc(Nc2cc(Nc3cccc(C(=O)NCCCn4ccnc4)c3)nc(N)n2)c1
**Result** 0

**Query** Request the reported inhibition associated with O=C(NC1Cc2ccccc2C1)c1cccc(Nc2ccnc(N3CCN(c4ccccc4)CC3)n2)c1
**Result** 3

**Query** Request the reported inhibition associated with O=C(C1CCN(c2nccc(Nc3ccccc3)n2)CC1)N1CC[C@@H](O)C1
**Result** 5

====

Target: Tyrosine-protein kinase ABL1 (Homo sapiens) (UniProt P00519)
Sequence (P00519 whole entry): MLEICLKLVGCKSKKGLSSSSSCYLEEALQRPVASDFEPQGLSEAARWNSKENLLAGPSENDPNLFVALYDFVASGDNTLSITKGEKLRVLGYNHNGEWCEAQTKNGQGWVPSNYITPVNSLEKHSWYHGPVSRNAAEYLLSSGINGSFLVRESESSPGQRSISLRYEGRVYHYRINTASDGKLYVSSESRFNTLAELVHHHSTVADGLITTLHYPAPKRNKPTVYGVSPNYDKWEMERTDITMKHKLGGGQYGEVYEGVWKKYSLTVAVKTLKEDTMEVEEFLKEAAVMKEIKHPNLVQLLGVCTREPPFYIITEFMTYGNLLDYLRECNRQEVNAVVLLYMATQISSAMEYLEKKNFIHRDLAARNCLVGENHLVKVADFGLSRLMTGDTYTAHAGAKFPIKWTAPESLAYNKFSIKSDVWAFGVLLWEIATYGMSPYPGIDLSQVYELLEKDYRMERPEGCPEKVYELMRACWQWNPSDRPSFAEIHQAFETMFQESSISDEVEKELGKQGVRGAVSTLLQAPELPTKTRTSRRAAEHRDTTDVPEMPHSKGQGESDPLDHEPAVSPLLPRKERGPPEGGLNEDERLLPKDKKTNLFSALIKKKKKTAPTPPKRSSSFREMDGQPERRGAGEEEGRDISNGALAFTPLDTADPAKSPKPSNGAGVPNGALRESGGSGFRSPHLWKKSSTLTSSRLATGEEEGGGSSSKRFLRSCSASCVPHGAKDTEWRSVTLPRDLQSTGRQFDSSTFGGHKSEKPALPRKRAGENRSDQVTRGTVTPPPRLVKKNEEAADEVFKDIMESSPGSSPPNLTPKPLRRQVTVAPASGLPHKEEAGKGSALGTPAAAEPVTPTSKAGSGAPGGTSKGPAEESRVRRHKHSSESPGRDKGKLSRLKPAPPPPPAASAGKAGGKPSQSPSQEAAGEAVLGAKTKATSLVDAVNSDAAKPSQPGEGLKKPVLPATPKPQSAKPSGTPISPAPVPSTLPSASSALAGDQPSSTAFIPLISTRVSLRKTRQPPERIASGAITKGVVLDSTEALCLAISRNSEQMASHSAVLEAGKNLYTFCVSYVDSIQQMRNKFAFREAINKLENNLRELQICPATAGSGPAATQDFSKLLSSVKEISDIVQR
Experiment: Inhibition of Abl at 10 uM by HTRF assay relative to control
// n strictly below 2% in inhibition; y otherwise

>>> assigned_category("CN(CCc1ccccn1)C(=O)[C@@H]1CCCN1c1nccc(Nc2ccccc2)n1")
"y"
>>> assigned_category("Cc1cc(C(=O)N2CCN(c3ncnc4c3CN(Cc3ccccc3)CC4)CC2)c(C)n1C")
"y"
>>> assigned_category("COC[C@@H]1CCCN1C(=O)[C@@H]1CCCN1c1cc(Nc2cccc(OC)c2)nc(N)n1")
"n"

**Query** Could you tell me if the measured inhibition of O=C(COc1ccccc1)N1CCN(c2nccc(Nc3ccc4ncsc4c3)n2)CC1 reaches 2% or more?
**Result** y

**Query** Could you tell me if the measured inhibition of Cc1cccc(N(C)c2cc(Nc3cccc(C(=O)NCc4ccc(N(C)C)cc4)c3)ncn2)c1 reaches 2% or more?
**Result** y

====

Target: Serine/threonine-protein kinase Chk1 (Homo sapiens)
Experiment: Inhibition of CHK1 at 10 uM by HTRF assay relative to control
// condition not met strictly below 3% in inhibition; condition met otherwise

The examples below pair each entry with its known result.
>>> assigned_category("Cc1cccc(N(C)c2cc(Nc3cccc(C(=O)N(C)CCc4ccccn4)c3)ncn2)c1")
"condition met"
>>> assigned_category("CN(C)c1ccc(C(=O)N2CCN(c3ncnc4c3CN(Cc3ccccc3)CC4)CC2)c2ccccc12")
"condition met"

**Query** Could you tell me if the measured inhibition of Nc1nc(Nc2ccc(C(=O)NCCc3ccncc3)cc2)cc(N2CCOCC2)n1 reaches 3% or more?
**Result** condition not met

**Query** Could you tell me if the measured inhibition of Cc1cccc(N(C)c2cc(Nc3cccc(C(=O)NCc4ccc(N(C)C)cc4)c3)ncn2)c1 reaches 3% or more?
**Result** condition not met

====

Target: Tyrosine-protein kinase Lyn (Homo sapiens)
Assay: Inhibition of Lyn at 10 uM by HTRF assay relative to control
outcome.measure: inhibition (%)
Write it as a number; the unit % goes unstated.

See these solved cases before continuing.
>>> readout_number("Nc1nc(Nc2ccc(C(=O)NCCc3ccncc3)cc2)cc(N2CCOCC2)n1")
1
>>> readout_number("COc1cccc(Nc2cc(N3CCC[C@H]3C(=O)NCCN3CCCCC3)nc(N)n2)c1")
8
>>> readout_number("CN(CCc1ccccn1)C(=O)c1cccc(Nc2nccc(Nc3ccc4ncsc4c3)n2)c1")
48

Shift focus to the following entry.
**Query** Request the reported inhibition associated with Nc1nc(Nc2ccc3ncsc3c2)cc(N2CCC[C@H]2C(=O)N[C@@H](CO)c2ccccc2)n1
**Result** 0

====

Molecular target: Tyrosine-protein kinase Lyn (Homo sapiens)
Experiment: Inhibition of Lyn at 10 uM by HTRF assay relative to control
Each entry below carries its recorded inhibition.
Write it as a number; the unit % goes unstated.

>>> readout_number("Cc1cccc(N(C)c2cc(Nc3cccc(C(=O)NCCCn4ccnc4)c3)ncn2)c1")
27
>>> readout_number("CN(C)CC(C)(C)CNC(=O)c1cccc(Nc2nccc(Nc3ccc4ncsc4c3)n2)c1")
75
>>> readout_number("CN(C)c1ccc(C(=O)N2CCN(c3ncnc4c3CN(Cc3ccccc3)CC4)CC2)c2ccccc12")
0
>>> readout_number("COC[C@@H]1CCCN1C(=O)[C@@H]1CCCN1c1nccc(Nc2ccccc2)n1")
0
>>> readout_number("Cc1cccc(N(C)c2cc(N3CCN(C(=O)Cc4c[nH]c5ccccc45)CC3)ncn2)c1")
6
>>> readout_number("Cc1cccc(Nc2cc(Nc3cccc(C(=O)N(CC(C)O)CC(C)O)c3)ncn2)c1 (centres undefined)")
49
>>> readout_number("O=C(CN1CCN(c2ncnc3c2CN(Cc2ccccc2)CC3)CC1)Nc1cc(F)ccc1F")
2
>>> readout_number("O=C(c1nc(SCc2ccc(Cl)cc2)n2ccccc12)N1CCN(c2cc(Nc3cccc(Br)c3)ncn2)CC1")
4

**Query** Request the reported inhibition associated with Clc1ccc2sc(CN3CCN(c4ncnc5c4CN(Cc4ccccc4)CC5)CC3)cc2c1
**Result** 17
